# TARGET_SYSTEM: T1, mouse PRLR ECD-Fc fusion protein (mouse, UniProt Q08501 20-229)
# T1 construct: extracellular domain; not shown: Fc region (captured by goat anti-human Fc)
# T1 sequence (looked up): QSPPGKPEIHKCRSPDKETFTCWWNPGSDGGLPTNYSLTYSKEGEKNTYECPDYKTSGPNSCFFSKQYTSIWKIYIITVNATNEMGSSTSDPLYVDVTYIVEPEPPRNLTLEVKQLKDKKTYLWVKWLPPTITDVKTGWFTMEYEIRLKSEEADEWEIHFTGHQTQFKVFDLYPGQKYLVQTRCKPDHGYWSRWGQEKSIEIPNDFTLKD
# ASSAY_PROCEDURE: ELISA on ECD
Each entry below lists one item and its recorded pEC50 value.
Schema: pEC50 number; meaning minus log10 of the concentration expressed in molar units.

binder Ab27 (antibody, human IgG1, kappa, V domains shown, humanized from Ab5; G1; also called Ab2 HC.1 and Ab2 LC.1a) VH: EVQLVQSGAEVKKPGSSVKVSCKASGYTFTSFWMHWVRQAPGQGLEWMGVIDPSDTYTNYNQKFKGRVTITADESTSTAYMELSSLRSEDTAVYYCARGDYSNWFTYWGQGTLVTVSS VL: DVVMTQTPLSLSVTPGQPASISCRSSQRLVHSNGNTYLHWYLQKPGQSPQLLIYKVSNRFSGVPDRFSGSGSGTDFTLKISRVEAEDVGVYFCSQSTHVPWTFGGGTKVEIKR , pEC50 observed: 9.73

binder Ab10 (antibody, V domains shown, murine monoclonal, isotype G2a; also called murine Ab10) VH: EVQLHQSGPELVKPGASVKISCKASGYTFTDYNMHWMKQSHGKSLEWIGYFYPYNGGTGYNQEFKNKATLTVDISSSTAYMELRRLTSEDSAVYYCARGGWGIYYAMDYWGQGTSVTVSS VL: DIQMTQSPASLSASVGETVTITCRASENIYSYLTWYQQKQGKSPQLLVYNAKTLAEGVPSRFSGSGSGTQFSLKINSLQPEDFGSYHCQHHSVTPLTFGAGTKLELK , pEC50 observed: 8.94

binder chAb7 (antibody, human IgG1, kappa, V domains shown, chimeric, murine variable and human G1/kappa constant regions) VH: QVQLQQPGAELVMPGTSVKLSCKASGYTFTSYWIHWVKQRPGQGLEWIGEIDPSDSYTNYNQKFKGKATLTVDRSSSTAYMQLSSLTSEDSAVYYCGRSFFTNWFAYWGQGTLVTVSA VL: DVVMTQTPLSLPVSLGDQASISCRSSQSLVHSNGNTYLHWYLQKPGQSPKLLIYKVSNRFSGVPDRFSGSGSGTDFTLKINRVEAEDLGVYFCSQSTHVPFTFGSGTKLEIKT , pEC50 observed: 9.74

binder chAb5 (antibody, human IgG1, kappa, V domains shown, chimeric, murine variable and human G1/kappa constant regions) VH: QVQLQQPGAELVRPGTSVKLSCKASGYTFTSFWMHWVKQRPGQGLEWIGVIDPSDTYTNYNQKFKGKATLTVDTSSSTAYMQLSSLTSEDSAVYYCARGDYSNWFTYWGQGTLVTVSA VL: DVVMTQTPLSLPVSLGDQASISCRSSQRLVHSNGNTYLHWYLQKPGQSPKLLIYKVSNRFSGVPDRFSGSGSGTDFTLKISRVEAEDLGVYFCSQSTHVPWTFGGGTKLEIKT , pEC50 observed: 9.92

binder Ab30 (antibody, human IgG1, kappa, V domains shown, humanized from Ab5; G1; also called Ab2 HC.1a and Ab2 LC.1a) VH: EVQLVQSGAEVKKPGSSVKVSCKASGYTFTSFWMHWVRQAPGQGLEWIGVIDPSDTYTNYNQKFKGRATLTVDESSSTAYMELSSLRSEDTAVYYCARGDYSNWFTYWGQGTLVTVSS VL: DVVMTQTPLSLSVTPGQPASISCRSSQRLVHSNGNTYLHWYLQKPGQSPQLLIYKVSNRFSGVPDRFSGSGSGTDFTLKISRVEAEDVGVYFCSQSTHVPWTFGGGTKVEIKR , pEC50 observed: 9.70
